tested on: Escherichia coli TOP10; test: shrunken log2 fold change of peptide-encoding DNA abundance (4.5 h post-induction vs induction); higher = less antimicrobial activity (less host growth inhibition); conditions: time post-induction: 4.5 h; library: site-saturation at positions 5, 18, 19, 20;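 also: peptides expressed intracellularly from a pBAD plasmid library in pooled LB shake-flask culture, induced with 0.3% L-arabinose, DNA abundance read by NGS, three biological replicates, DESeq2 with apeglm shrinkage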
attribute.measured: shrunken log2 fold change

// shrunken log2 fold change lookup, sequence = "RRIRFRPPRLPRPRPRPKRQPRP" , result: 0.401

// shrunken log2 fold change lookup, sequence = "RRIRYRPPRLPRPRPRPGLLPRP" , result: 0.0178

// shrunken log2 fold change lookup, sequence = "RRIRARPPRLPRPRPRPGTMPRP" , result: 0.351

// shrunken log2 fold change lookup, sequence = "RRIRLRPPRLPRPRPRPKHQPRP" , result: 0.125

// shrunken log2 fold change lookup, sequence = "RRIRWRPPRLPRPRPRPMWKPRP" , result: -0.0109

// shrunken log2 fold change lookup, sequence = "RRIRNRPPRLPRPRPRPRSRPRP" , result: 0.177

// shrunken log2 fold change lookup, sequence = "RRIRKRPPRLPRPRPRPVHWPRP" , result: 0.621

// shrunken log2 fold change lookup, sequence = "RRIRWRPPRLPRPRPRPNNMPRP" , result: -0.345

// shrunken log2 fold change lookup, sequence = "RRIRYRPPRLPRPRPRPMSMPRP" , result: -0.304

// shrunken log2 fold change lookup, sequence = "RRIRQRPPRLPRPRPRPKYNPRP" , result: -0.879

// shrunken log2 fold change lookup, sequence = "RRIRIRPPRLPRPRPRPQCWPRP" , result: 0.203

// shrunken log2 fold change lookup, sequence = "RRIRIRPPRLPRPRPRPWAAPRP" , result: 0.00251

// shrunken log2 fold change lookup, sequence = "RRIRTRPPRLPRPRPRPHTIPRP" , result: -0.314

// shrunken log2 fold change lookup, sequence = "RRIRMRPPRLPRPRPRPSQCPRP" , result: -0.112

// shrunken log2 fold change lookup, sequence = "RRIRMRPPRLPRPRPRPWMIPRP" , result: -0.136

// shrunken log2 fold change lookup, sequence = "RRIRVRPPRLPRPRPRPKCRPRP" , result: 0.224

// shrunken log2 fold change lookup, sequence = "RRIRGRPPRLPRPRPRPPESPRP" , result: 0.873

// shrunken log2 fold change lookup, sequence = "RRIRPRPPRLPRPRPRPKSRPRP" , result: 0.154

// shrunken log2 fold change lookup, sequence = "RRIRLRPPRLPRPRPRPFEKPRP" , result: -0.0511

// shrunken log2 fold change lookup, sequence = "RRIRIRPPRLPRPRPRPGRKPRP" , result: 0.0417

// shrunken log2 fold change lookup, sequence = "RRIRMRPPRLPRPRPRPYTRPRP" , result: -0.013

// shrunken log2 fold change lookup, sequence = "RRIRMRPPRLPRPRPRPWGMPRP" , result: 0.187

// shrunken log2 fold change lookup, sequence = "RRIRDRPPRLPRPRPRPCVQPRP" , result: 0.239

// shrunken log2 fold change lookup, sequence = "RRIRQRPPRLPRPRPRPHASPRP" , result: -0.00783

// shrunken log2 fold change lookup, sequence = "RRIRVRPPRLPRPRPRPWVFPRP" , result: 0.284

// shrunken log2 fold change lookup, sequence = "RRIRKRPPRLPRPRPRPAGLPRP" , result: 0.126

// shrunken log2 fold change lookup, sequence = "RRIRDRPPRLPRPRPRPQTVPRP" , result: 0.0628

// shrunken log2 fold change lookup, sequence = "RRIRWRPPRLPRPRPRPKVKPRP" , result: 0.49

// shrunken log2 fold change lookup, sequence = "RRIRPRPPRLPRPRPRPSKYPRP" , result: -0.528

// shrunken log2 fold change lookup, sequence = "RRIRARPPRLPRPRPRPFCQPRP" , result: -0.0229

// shrunken log2 fold change lookup, sequence = "RRIRDRPPRLPRPRPRPASWPRP" , result: 0.805

// shrunken log2 fold change lookup, sequence = "RRIRPRPPRLPRPRPRPPDEPRP" , result: 0.444

The reported measurements were obtained from the supplement of paper PMC9112550.
